Reference source for all entries: patent US20230095569A1

Biological target: human Claudin18.2 (CLDN18.2) (UniProt P56856 1-261)
Assay: FACS cell binding; GAXC031 cells
pEC50: −log10 of the molar value.
Each entry below carries its recorded pEC50.
Property label: pEC50

1. humanized Ab10 (VHN1×VLN1) (antibody, V domains shown) VH: EVMLVESGGGLVQPGGSLRLSCAASGFTFSSYTMSWVRQTPGKRLEWVATISVIGGNTYYVDSVKGRFTISRDKSKNTLYLQMNSLRAEDTAVYYCARLGQTQRNAMDYWGQGTLVTVSS VL: DIVMTQSPDSLAVSAGERATMNCKSSQSLLNSGNQKNYLAWYQQKPGQPPKLLIYGASTRESGVPDRFSGSGSGTDFTLTISSLQAEDVAVYYCQNDYSYPLTFGAGTKLEIK    7.36
2. humanized Ab17 (VH5×VLN1) (antibody, V domains shown) VH: QVQLQESGPGLVKPSQTLSLTCTVSGFSLTSYAISWVRQPAGKGLEWLGEIWTGGGTNYNSALKSRVSISKDNSKSQVFLKLSSVTAADTARYYCGRLSYGNSLDYWGQGTLVTVSS VL: DIVMTQSPDSTTVLLGERATINCKSSQSLLNSGNQKNYLAWYQQKPGQPPKLLIYWASTRESGVPDRFSGSGSGTDFTLTISSLQAEDVAVYYCQNNFIYPLTFGPGTKLEIK    7.31
3. chAb10 (antibody, V domains shown) VH: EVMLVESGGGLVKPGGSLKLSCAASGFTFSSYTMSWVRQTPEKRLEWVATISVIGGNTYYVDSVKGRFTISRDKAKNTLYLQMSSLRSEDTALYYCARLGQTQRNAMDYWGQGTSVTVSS VL: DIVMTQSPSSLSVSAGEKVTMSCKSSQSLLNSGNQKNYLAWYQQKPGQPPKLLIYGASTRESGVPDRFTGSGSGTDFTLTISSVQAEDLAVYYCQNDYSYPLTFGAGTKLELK    7.31
